- ASSAY TARGET: human MAGL (His-hMAGL) (Homo sapiens, UniProt Q99685)
- Construct: made in house; host or cells: Escherichia coli BL21(DE3)
- Sequence (Q99685 whole entry): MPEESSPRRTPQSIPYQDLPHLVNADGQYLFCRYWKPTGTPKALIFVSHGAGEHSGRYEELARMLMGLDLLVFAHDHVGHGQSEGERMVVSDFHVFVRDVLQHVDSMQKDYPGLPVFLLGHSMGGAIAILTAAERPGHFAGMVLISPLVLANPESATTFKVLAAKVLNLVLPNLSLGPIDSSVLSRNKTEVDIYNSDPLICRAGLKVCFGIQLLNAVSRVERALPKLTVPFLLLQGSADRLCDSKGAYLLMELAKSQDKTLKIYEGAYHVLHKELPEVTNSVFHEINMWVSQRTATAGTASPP
- TEST DETAILS: Measurement of MAGL inhibitory activity by mass spectrometry
- Format: biochemical
- STATED CONDITIONS: MAGL inhibitory rate, test compound 10 μM, His-hMAGL, substrate 2-arachidonylglycerol, RapidFire-mass spectrometry
ASSAY ENDPOINT: inhibition at 10 µM (%)

>>> print(df.to_string())
                                    compound       assay_endpoint  result_units  test_result
 0  O=C(c1nccs1)N1CCN(C2CC(=O)N(c3cccc(-c4cccc5[nH]ncc45)c3)C2)CC1 (stereo not shown)  inhibition at 10 µM             %          103
 1  CC1C(N2CCN(C(=O)c3nccs3)CC2)CC(=O)N1c1ccc(Oc2ccccc2)cc1 (stereo not shown)  inhibition at 10 µM             %           96
 2  Cc1ncccc1-c1cccc(N2CC(N3CCN(c4ncccn4)CC3)CC2=O)c1 (stereo not shown)  inhibition at 10 µM             %          102
 3  CCOc1ccccc1-c1cccc(N2CC(N3CCN(C(=O)c4nccs4)CC3)CC2=O)c1 (stereo not shown)  inhibition at 10 µM             %          103
 4  N#Cc1cccc(F)c1-c1cccc(N2CC(N3CCN(C(=O)c4nccs4)CC3)CC2=O)c1 (stereo not shown)  inhibition at 10 µM             %          100
 5  Cc1cc(-c2ccc(N3CC(N4CCN(C(=O)c5nccs5)CC4)CC3=O)cc2)n(C)n1 (stereo not shown)  inhibition at 10 µM             %           94
 6  O=C(c1nccs1)N1CCN(C2CC(=O)N(c3cccc(-c4ccc(C(F)(F)F)cc4)c3)C2)CC1 (stereo not shown)  inhibition at 10 µM             %           97
 7  Cc1nccnc1-c1cccc(N2CC(N3CCN(C(=O)c4nccs4)CC3)CC2=O)c1 (stereo not shown)  inhibition at 10 µM             %           92
 8  Cc1c(-c2ccc(N3CC(N4CCN(C(=O)c5nccs5)CC4)CC3=O)cc2)cnn1C (stereo not shown)  inhibition at 10 µM             %           92
 9  Cc1ccc(-c2ccc(N3CC(N4CCN(C(=O)c5nccs5)CC4)CC3=O)cc2)cn1 (stereo not shown)  inhibition at 10 µM             %           97
10  O=C1Cc2cccc(-c3cccc(N4CC(N5CCN(C(=O)c6nccs6)CC5)CC4=O)c3)c2N1 (stereo not shown)  inhibition at 10 µM             %           98
11  O=C(c1cscn1)N1CCN(C2CC(=O)N(c3ccc4c(ccn4-c4ccc(F)cc4)c3)C2)CC1 (stereo not shown)  inhibition at 10 µM             %          100
12  O=C(c1nccs1)N1CCN(C2CC(=O)N(c3ccc4c(ccn4-c4ccccc4)c3)C2)CC1 (stereo not shown)  inhibition at 10 µM             %          101
13  O=C(c1nccs1)N1CCN(C2CC(=O)N(c3cccc(-c4cccc5ccnn45)c3)C2)CC1 (stereo not shown)  inhibition at 10 µM             %           98
14  O=C(c1nccs1)N1CCN(C2CC(=O)N(c3cccc(-c4ccccc4N4CCOCC4)c3)C2)CC1 (stereo not shown)  inhibition at 10 µM             %          102
15  Cc1ccncc1-c1cccc(N2CC(N3CCN(C(=O)c4nccs4)CC3)CC2=O)c1 (stereo not shown)  inhibition at 10 µM             %          102
